Quick reference for Primary Neutralization Index (B cell culture supernatant) among some binders
- measured.on: HIV-1 Env of pseudovirus 92TH021 (HIV-1)
- method.notes: cell-based or functional assay

binder	value
PGT-126 (B cell culture well 5141_B17) (antibody, V domains shown) VH: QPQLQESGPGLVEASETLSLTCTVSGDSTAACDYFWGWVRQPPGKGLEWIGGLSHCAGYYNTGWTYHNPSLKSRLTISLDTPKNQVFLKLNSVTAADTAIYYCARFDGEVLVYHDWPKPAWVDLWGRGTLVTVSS VL: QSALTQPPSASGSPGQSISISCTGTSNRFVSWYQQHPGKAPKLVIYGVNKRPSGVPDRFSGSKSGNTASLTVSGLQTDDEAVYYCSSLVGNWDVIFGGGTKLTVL	2.3
PGT-130 (B cell culture well 5147_N6) (antibody, V domains shown) VH: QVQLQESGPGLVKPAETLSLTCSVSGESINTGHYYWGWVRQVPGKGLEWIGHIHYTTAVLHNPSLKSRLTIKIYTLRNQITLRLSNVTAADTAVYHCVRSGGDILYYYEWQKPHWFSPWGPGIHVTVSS VL: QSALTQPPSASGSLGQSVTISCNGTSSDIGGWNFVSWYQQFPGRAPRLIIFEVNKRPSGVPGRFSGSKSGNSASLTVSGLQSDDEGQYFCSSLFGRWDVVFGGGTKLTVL	538
PGT-125 (B cell culture well 5123_A6) (antibody, V domains shown) VH: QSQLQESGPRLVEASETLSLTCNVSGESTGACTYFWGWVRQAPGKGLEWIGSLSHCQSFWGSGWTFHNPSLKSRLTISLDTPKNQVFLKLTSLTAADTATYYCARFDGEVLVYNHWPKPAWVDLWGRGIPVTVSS VL: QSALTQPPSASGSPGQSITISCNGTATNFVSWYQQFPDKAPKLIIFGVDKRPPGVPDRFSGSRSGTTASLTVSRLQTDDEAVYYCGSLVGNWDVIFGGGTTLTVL	133
PGT-128 (B cell culture well 5114_A19) (antibody, V domains shown) VH: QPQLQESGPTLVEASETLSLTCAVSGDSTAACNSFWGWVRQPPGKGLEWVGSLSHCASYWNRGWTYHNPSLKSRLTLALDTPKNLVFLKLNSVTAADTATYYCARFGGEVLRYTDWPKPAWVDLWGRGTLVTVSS VL: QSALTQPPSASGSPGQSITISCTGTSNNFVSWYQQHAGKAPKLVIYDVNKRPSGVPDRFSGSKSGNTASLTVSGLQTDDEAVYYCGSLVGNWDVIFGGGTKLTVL	6.6
PGT-127 (B cell culture well 5145_B14) (antibody, V domains shown) VH: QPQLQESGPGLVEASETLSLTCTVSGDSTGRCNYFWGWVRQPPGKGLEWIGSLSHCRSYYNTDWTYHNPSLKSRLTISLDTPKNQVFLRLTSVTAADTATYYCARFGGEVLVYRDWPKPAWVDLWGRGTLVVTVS VL: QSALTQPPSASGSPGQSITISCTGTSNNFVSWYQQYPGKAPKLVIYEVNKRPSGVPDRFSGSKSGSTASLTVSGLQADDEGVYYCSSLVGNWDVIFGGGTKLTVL	1

Primary Neutralization Index (B cell culture supernatant) in this record for PGT-131 (B cell culture well 5136_H1) (antibody, V domains shown) VH: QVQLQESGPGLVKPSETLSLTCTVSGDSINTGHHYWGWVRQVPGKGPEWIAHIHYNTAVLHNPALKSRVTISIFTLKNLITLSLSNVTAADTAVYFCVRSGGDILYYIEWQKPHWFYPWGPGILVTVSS VL: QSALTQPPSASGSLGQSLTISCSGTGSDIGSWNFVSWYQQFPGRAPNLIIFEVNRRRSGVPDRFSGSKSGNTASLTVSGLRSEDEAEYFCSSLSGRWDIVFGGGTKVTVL : 354
